B1: tRNA (parent)
chain: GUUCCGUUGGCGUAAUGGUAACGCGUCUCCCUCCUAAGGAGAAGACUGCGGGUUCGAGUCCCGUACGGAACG

# Variants of: B1
# assay explanation: yeast fitness relative to wild type (ratio to wild type); higher = fitter; tRNA-Arg(CCU), competitive growth, 37 C, YPD
Fewer inactive variants are shown than the library holds.
Measured yeast fitness, listed per entry for reference.
I only need the number, thanks.

Some variants with known yeast fitness results, for comparison:
Data request, read-out yeast fitness, for C30A U35C A37U
0.547

Data request, read-out yeast fitness, for C4U G52A A70U
0.604

Data request, read-out yeast fitness, for U3G C62U A70U
0.551

Data request, read-out yeast fitness, for G9A A40C A70U
0.74

Data request, read-out yeast fitness, for A21G G25A A42C
0.707

Others:
Data request, read-out yeast fitness, for G12A A20G
0.923

Data request, read-out yeast fitness, for U8C C66A
0.687
